This collection of values is drawn from PubChem BioAssay AID504332.

# ASSAY SYSTEM: Histone-lysine N-methyltransferase EHMT2 (Homo sapiens)
# PROTOCOL: qHTS Assay for Inhibitors of Histone Lysine Methyltransferase G9a; further: on the % scale 0 is the no-effect control and ±100 the full control effect; nearly all actives have a fitted effect of over 75% in size
# COND: G9a H3K9 monomethylation, AlphaScreen, 2 h; series mostly up to 59 µM
In all, about 350,000 compounds went through this assay and about 31,000 (8.9%) were called active. About 15% were inconclusive and are not listed. The call rests on the fitted dose curve; in most records, active means well fitted inhibition curve with a large enough effect; inconclusive means small, poorly fitted or top-dose-only effect; inactive means no such curve, though single readings can be large or run the other way. The list comes from a sample in which actives are over-represented; it also holds close analogues and randomly drawn compounds.
Bench note: report the call from label 1 (active), label 0 (inactive)

Worked set:
SAMPLE SMILES	CLASS ASSIGNMENT
O=C(NCCCN1CCOCC1)c1ccc([N+](=O)[O-])cc1[N+](=O)[O-]	label 0
Cc1cc(OC(=O)c2ccccc2)c([N+](=O)[O-])c(=O)[nH]1	label 0

Please let me know the test result on file for CCCCCn1c(=O)[nH]c2cc(C(=O)NCCN(C)CCCC)ccc2c1=O .
label 0
